These data points were gathered from PubChem BioAssay (NCI).

Tested on: OVCAR-8 ovarian
Test: NCI-60 one-dose screen, 48 h (100 = growth as untreated, 0 = no growth, -100 = all killed)
Settings: 10 µM unless noted
Experimental: Growth inhibition of the OVCAR-8 human tumor cell line is measured as a screen for anti-cancer activity. Cells are grown in 96 well plates and exposed to the test compound for 48 hours. Compounds are tested at a single concentration, which is 10^-5 M for most compounds. The reported endpoint is percent growth (GI% or GIPRCNT), where numbers from 0 - 100% represent growth inhibition, and numbers from -100% - 0 represent cell death. For example, a value of 40 represents 60% growth inhibition. […]
The panel holds about 83,000 compounds, 20% with a hit somewhere; the sample as a whole holds those more often.
# note: boundary value 90% maps to false; growth below it maps to true

q: Dear reviewer, please state whether CC(C)(C)c1ccc2oc(=O)n(SC(Cl)(Cl)Cl)c2c1 has growth strictly beneath 90%.
a: false

q: Record: CC(=O)c1ccc(NC(=O)CSc2nnc(-c3cc(-c4ccc(C)cc4)nc4ccccc34)o2)cc1
a: true

q: How about C#C[C@@]1(O)[C@@H](CO)O[C@@H](n2cc(Cl)c3c(N)ncnc32)[C@@H]1O ?
a: true

q: Now give it for COC(=O)[C@]1(C)CCC[C@]2(C)[C@H]3C[C@H]4C(C(C)C)=C[C@]3(CC[C@H]21)[C@@H]1C(=O)N(CCC#N)C(=O)[C@@H]14 too.
a: true

q: Further, for COC(=O)/C=C1\SC(=Nc2ccc(C(F)(F)F)cc2)N(CCc2c[nH]c3ccccc23)C1=O ?
a: true

###

Tested on: OVCAR-5 ovarian
Assay: NCI-60 one-dose screen, 48 h
Details: 10 µM unless noted
The panel holds about 83,000 compounds, 20% with a hit somewhere; the sample as a whole holds those more often. The source made the active and inactive calls. The calls were made as follows: active = growth percent below 10; inactive = the rest.
Tick one outcome: active, inactive

q: How did this test come out for Cc1cc(C)nc(NS(=O)(=O)c2ccc(Nc3ccc4c5c(n(CCCN(C)C)c(=O)c4c3)-c3ccccc3C5=O)cc2)n1 ?
a: inactive

q: Param item: Cc1nnc(/N=C2\NC(=O)/C(=C/c3ccsc3)S2)s1
a: inactive

q: Now consider O=C1C(=O)c2c(nc3ccc(C(F)(F)F)cn23)-c2ccccc21 and answer again.
a: active

q: Next: CCOC(=O)/C=C1\SC(=Nc2ccc(C#N)cc2)N(CCN2C(=O)/C(=C/C(=O)OCC)SC2=Nc2ccc(C#N)cc2)C1=O
a: inactive

###

Test system: A498 renal
Test: NCI-60 one-dose screen, 48 h (100 = growth as untreated, 0 = no growth, -100 = all killed)
Settings: 10 µM unless noted
Compounds without any hit were thinned out: in the full panel of roughly 83,000, 20% have a hit.
Consider the cut-off 70%. If the recorded growth is strictly smaller, the label is TRUE; if not, the label is FALSE.

q: Is growth of COc1cc2c(cc1OCCCOc1cc3c(cc1OC)C(=O)N1CC(F)(F)C[C@H]1C=N3)N=C[C@@H]1CC(F)(F)CN1C2=O strictly below 70%?
a: TRUE

q: Likewise for CCOC(=O)C(=Cc1c(-c2ccccc2)[nH]c2ccccc12)C(=O)OCC ?
a: FALSE

q: Next compound up: NCCN1CCNCC1
a: FALSE

q: // same read-out, input: O=C1[C@@H](OS(=O)(=O)CC(F)(F)F)[C@H](c2ccc(F)cn2)N1c1cc2c3ccccc3ccc2c2ccccc12
a: FALSE

q: Request: CC(C)(C)c1nn(-c2ccccc2)c2c1COCN2Cc1ccc(Cl)cc1
a: FALSE

q: Moving on to COc1ccc(Cc2nc(C#N)c(N3CCN(c4ccc(F)cc4)CC3)o2)cc1
a: FALSE

q: How about this compound: COc1ccc(-c2nnc(N3CCN(C(=O)CN4CCN(c5ccccc5)CC4)CC3)nc2-c2ccc(OC)cc2)cc1
a: TRUE

q: Let us now turn to CSc1cccc(NC(=O)Nc2nc3c(C)cccc3s2)c1
a: FALSE

q: Repeat for the following compound: C=CCn1c(CN2CCN(c3cc4c(cc3F)c(=O)c(C(=O)O)cn4C3CC3)CC2)n[nH]c1=S
a: FALSE

q: Another compound to check: Cc1nc2sc(C(=O)Nc3cccc4ccccc34)c(N)c2cc1C(C)O (configuration not stated)
a: TRUE

q: CC(=O)c1cnc(-c2ccccc2)nc1CBr , same question.
a: FALSE
